Overview of reported GI50 across a group of compounds:
Test system: SNB-75
Assay: NCI 60 growth inhibition
Format: cell-based, human
Conditions: Homo sapiens; SNB-75, CNS Cancer, Table 2
Experimental: The above triazole derivatives of melampomagnolide B were evaluated for growth inhibitory properties against an NCI panel of 60 human cancer cell lines derived from nine human cancer cell types, grouped into disease sub-panels that represent leukemia, lung, colon, central nervous system (CNS), melanoma, renal, ovary, breast, and prostate cancer cells. Growth inhibitory (GI50) effects were measured as a function of the variation of optical density as a percentage of control.

| compound | unit-tag | GI50 |
| --- | --- | --- |
| C=C1C(=O)O[C@H]2[C@H]1CC/C(Cn1cc(-c3ccc(F)cc3)nn1)=C\CC[C@@]1(C)O[C@@H]21 [JVM 4-26] | nM | 1250 |
| C=C1C(=O)O[C@H]2[C@H]1CC/C(Cn1cc(-c3cccc(Cl)c3)nn1)=C\CC[C@@]1(C)O[C@@H]21 [JVM 4-25] | nM | 1160 |
| C=C1C(=O)O[C@H]2[C@H]1CC/C(Cn1cc(-c3ccccc3)nn1)=C\CC[C@@]1(C)O[C@@H]21 [JVM 3-74] | nM | 6210 |
| C=C1C(=O)O[C@H]2[C@H]1CC/C(Cn1cc(CCC)nn1)=C\CC[C@@]1(C)O[C@@H]21 [JVM 4-16] | nM | 18500 |
| C=C1C(=O)O[C@H]2[C@H]1CC/C(Cn1cc(-c3cc(C(F)(F)F)cc(C(F)(F)F)c3)nn1)=C\CC[C@@]1(C)O[C@@H]21 [JVM 4-29] | nM | 1260 |
| C=C1C(=O)O[C@H]2[C@H]1CC/C(Cn1cc(-c3ccc(OC)cc3)nn1)=C\CC[C@@]1(C)O[C@@H]21 [JVM 4-24] | nM | 1470 |
